assay: Inhibition of human neutrophil elastase activity assessed as reduction in […]

COMPOUND: COc1cc2c(c3c1CCC(c1ccccc1)O3)C1C3C(c4ccc(O)c(C)c4OC)C(C(O)(OC)c4ccccc4)C14C(C=CC(=O)C4OC)OC3(c1ccccc1)O2 (stereo unspecified)
IC50: > 10 µM

Recorded values, source BindingDB's records for PubMed 32698113.
